- studyTarget: T1, human IL-2Rα (human, UniProt P01589 22-240, limits assumed)
- T1 construct: recombinant protein; also called hu IL-2R; human IL-2Ra
- T1 sequence: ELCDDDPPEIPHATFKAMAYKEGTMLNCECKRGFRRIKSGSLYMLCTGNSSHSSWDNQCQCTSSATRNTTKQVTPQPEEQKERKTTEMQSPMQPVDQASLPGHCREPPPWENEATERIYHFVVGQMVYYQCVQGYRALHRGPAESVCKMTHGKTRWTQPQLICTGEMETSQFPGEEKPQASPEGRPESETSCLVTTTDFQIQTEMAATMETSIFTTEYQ
- methodDescription: ELISA, P.E. on coated antigen
Entries annotated with measured OD (PE binding ELISA)
propertyMeasured: OD (PE binding ELISA) (OD450 nm)

binder	unitLabel	recordedResult
FJ1427_P035MP05A05 (VHH, periplasmic extract; also called clone nr; 417) VHH: QLQLVESGGGLVQAGGSLRLSCAASGLTFDGYAIGWFRQASGKEREGVSYINGRDGSTFYADSVKGRFIISSDNAKNTVDLQMNSLKPDDAAVYYCAVDRLGSRGAYVSTWWRPPDMDLWGKGTLVTVSP	OD450 nm	1.86
FJ1427_P035MP05C06 (VHH, periplasmic extract; also called clone nr) VHH: QVQLVESGGGLVQAGGSLRLSCAASGLTFDGYAIGWFRQASGKEREGVSYINGRDGSTFYTDSVKGRFIISSDNAKNTVDLQMNSLKPDDAAVYYCAVDRLGSRGAYVSSWWRSPDMDLWGKGTLVTVSS	OD450 nm	2.43
